test: Plasma half-life was determined; type: ADME, cell-free
MEASURE: half-life (min)

- CC(C)C[C@H](CC(=O)NO)C(=O)N[C@@H](Cc1c[nH]c2ccccc12)C(=O)NCCN(C)C: 21

###

pKi: −log10 of the molar value.
Reported pKi, UniProt:P03956.
Sequence (P03956 whole entry): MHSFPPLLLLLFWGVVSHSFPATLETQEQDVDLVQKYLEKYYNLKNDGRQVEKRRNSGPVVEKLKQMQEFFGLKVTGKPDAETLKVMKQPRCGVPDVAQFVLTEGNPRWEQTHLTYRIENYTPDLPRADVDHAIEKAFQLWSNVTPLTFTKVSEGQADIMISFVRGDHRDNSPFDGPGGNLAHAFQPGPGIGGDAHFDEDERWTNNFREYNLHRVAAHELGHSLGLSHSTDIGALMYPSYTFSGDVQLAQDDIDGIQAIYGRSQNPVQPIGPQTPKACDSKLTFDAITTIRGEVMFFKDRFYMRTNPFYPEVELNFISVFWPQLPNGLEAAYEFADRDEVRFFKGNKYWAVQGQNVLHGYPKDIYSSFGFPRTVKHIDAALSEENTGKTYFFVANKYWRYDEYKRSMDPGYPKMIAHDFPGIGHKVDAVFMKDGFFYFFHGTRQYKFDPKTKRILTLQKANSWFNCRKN
MEASURE: pKi

- CC(C)C[C@H](CC(=O)NO)C(=O)N[C@@H](Cc1c[nH]c2ccccc12)C(=O)NCCCN(C)C: 8.52
- CC(C)C[C@H](CC(=O)NO)C(=O)N[C@@H](Cc1c[nH]c2ccccc12)C(=O)NCC[S+](C)[O-] (stereo partly specified): 8.70
- COc1ccc(C(=O)CCCCNC(=O)[C@H](Cc2c[nH]c3ccccc23)NC(=O)[C@@H](CC(=O)NO)CC(C)C)cc1: 8.70
- CSCCNC(=O)[C@H](Cc1c[nH]c2ccccc12)NC(=O)[C@@H](CC(=O)NO)CC(C)C: 8.30
- CC(C)C[C@H](CC(=O)NO)C(=O)N[C@@H](Cc1c[nH]c2ccccc12)C(=O)NCCS(C)(=O)=O: 8.52
- CC(C)C[C@H](CC(=O)NO)C(=O)N[C@@H](Cc1c[nH]c2ccccc12)C(=O)NCc1ccc(CN(C)C)cc1: 8.40
